RAF proto-oncogene serine/threonine-protein kinase (Homo sapiens, UniProt P04049): recorded pKd for assorted compounds
Sequence (P04049 whole entry): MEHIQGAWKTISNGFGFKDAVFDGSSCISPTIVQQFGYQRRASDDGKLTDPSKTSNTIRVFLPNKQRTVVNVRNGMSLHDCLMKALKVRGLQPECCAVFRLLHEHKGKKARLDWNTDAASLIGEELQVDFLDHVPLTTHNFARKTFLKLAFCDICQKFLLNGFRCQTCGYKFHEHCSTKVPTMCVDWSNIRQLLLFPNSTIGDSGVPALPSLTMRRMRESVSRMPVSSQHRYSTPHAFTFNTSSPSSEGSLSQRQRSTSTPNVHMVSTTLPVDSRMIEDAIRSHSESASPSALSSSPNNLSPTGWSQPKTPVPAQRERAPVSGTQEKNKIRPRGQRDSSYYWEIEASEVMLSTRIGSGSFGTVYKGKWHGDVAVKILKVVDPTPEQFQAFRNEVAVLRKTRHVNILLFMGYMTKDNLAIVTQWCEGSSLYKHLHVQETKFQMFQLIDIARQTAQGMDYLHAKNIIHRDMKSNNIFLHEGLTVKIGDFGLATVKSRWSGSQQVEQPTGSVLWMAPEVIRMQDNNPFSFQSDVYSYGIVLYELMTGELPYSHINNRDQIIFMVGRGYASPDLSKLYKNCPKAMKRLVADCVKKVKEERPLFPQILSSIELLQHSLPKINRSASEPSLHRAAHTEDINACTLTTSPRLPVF
Numbers only, as −log10 of the molar value.

Give me pKd for each of these compounds, listed below.
1. CN(C)S(=O)(=O)Nc1ccc(Cl)c(Oc2ccc3ncn(C)c(=O)c3c2)c1C#N
2. Cn1cnc2ccc(Oc3c(Cl)ccc(NS(=O)(=O)N4CCCC4)c3C#N)cc2c1=O

1: 6.09; 2: 6.72

====

These compounds were tested on Serine/threonine-protein kinase B-raf (Homo sapiens, UniProt P15056); pKd is the recorded read-out.
Sequence (P15056 whole entry): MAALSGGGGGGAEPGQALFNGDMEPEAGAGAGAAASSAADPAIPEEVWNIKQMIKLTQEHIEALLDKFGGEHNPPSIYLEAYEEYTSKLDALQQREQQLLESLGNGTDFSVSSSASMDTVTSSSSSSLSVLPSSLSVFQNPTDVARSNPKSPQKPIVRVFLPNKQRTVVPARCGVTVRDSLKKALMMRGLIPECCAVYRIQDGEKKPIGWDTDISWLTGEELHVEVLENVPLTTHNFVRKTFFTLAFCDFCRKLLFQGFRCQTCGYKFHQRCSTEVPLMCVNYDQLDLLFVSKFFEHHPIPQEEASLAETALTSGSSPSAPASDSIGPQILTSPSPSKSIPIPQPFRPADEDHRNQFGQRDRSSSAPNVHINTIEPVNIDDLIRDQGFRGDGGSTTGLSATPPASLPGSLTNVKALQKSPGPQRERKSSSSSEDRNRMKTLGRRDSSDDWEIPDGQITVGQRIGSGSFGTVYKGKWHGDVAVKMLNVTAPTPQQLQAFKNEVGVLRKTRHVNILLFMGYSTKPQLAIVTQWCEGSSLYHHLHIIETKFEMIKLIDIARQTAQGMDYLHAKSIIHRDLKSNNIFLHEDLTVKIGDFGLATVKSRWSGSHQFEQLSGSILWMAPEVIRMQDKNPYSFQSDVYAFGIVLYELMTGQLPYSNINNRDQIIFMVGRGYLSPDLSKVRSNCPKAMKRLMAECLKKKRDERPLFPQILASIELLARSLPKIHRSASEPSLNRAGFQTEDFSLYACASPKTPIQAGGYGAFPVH
Answers are plain numbers, as −log10 of the molar value.

I'm hoping you can list pKd for every compound here, please.
1. Cn1cnc2ccc(Oc3c(Cl)ccc(NS(=O)(=O)N4CCCC4)c3C#N)cc2c1=O
2. CN(C)S(=O)(=O)Nc1ccc(Cl)c(Oc2ccc3ncn(C)c(=O)c3c2)c1C#N

7.34
6.76

====

Entries with their measured Kd, system Tyrosine-protein kinase Lck (Homo sapiens, UniProt P06239):
Answers are plain numbers, in µM.

Cn1cnc2ccc(Oc3c(Cl)ccc(NS(=O)(=O)N4CCCC4)c3C#N)cc2c1=O : 12

Next compound, Kd to be filled in.
May I ask what Kd has been recorded for CN(C)S(=O)(=O)Nc1ccc(Cl)c(Oc2ccc3ncn(C)c(=O)c3c2)c1C#N ?
10.4

====

Target: Serine/threonine-protein kinase B-raf [V600E] (Homo sapiens, UniProt P15056, V600E)
Sequence (P15056 2-766 V600E limits assumed): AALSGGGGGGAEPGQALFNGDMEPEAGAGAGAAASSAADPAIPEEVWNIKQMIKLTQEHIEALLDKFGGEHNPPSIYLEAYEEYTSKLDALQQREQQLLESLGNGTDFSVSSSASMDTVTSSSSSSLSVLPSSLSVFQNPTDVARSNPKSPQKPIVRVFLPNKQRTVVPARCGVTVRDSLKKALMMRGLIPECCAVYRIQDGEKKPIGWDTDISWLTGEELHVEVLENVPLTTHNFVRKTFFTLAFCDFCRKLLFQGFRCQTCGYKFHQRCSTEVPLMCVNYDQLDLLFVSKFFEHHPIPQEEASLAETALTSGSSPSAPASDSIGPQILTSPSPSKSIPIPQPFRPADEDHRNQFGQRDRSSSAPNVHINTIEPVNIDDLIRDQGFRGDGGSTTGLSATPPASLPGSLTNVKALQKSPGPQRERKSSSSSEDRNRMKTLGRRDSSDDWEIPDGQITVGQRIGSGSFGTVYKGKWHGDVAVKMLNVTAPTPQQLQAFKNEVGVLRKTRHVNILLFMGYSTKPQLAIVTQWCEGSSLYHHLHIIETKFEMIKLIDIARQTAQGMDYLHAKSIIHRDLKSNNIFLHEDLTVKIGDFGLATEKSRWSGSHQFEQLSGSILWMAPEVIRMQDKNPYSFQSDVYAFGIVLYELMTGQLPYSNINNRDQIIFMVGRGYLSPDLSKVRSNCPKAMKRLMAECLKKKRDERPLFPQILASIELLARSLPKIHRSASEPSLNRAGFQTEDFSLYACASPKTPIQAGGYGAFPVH
Assay: Kinase Assay
EXPERIMENTAL_ENDPOINT: Kd (nM)
Numbers only, in nM.

Cn1cnc2ccc(Oc3c(Cl)ccc(NS(=O)(=O)N4CCCC4)c3C#N)cc2c1=O : 119

With those in mind, consider the next compound.
What value of Kd has been recorded for this entry: CN(C)S(=O)(=O)Nc1ccc(Cl)c(Oc2ccc3ncn(C)c(=O)c3c2)c1C#N
504
